experiment: MTT cell viability assay, normal cells; conditions: human, human skin fibroblasts (CCD25Sk)
Please go through the items and note down their IC50 at 24 h.

Before answering, review these 5 worked examples.
Compound: COc1c(O)cc(O)c2c(=O)c(O)c(-c3ccc(O)cc3)oc12 [Compound 19, 8-methoxykaempferol]
IC50 at 24 h: > 200 µM
//
Compound: COc1cc(O)c2c(=O)c(O)c(-c3ccc(O)c(O)c3)oc2c1 [Compound 25, 7-methoxyquercetin]
IC50 at 24 h: 100 to 200 µM
//
Compound: COc1ccc(C2CC(=O)c3c(O)cc(OC4OC(COC5OC(C)C(O)C(O)C5O)C(O)C(O)C4O)cc3O2)cc1O (stereo not drawn) [Compound 34, hesperetin 7-O-rutinoside]
IC50 at 24 h: > 200 µM
//
Compound: COc1ccc(C2CC(=O)c3c(O)cc(OC4OC(CO)C(O)C(O)C4OC4OC(C)C(O)C(O)C4O)cc3O2)cc1O (stereo not drawn) [Compound 35, hesperetin 7-O-neohesperidoside]
IC50 at 24 h: > 200 µM
//
Compound: O=c1c(-c2ccc(O)cc2)coc2cc(O)ccc12 [Compound 36, daidzein]
IC50 at 24 h: > 200 µM

Then this compound:
Field IC50 at 24 h (entry O=C(O)C1OC(Oc2cc(O)c3c(=O)cc(-c4ccc(O)cc4)oc3c2)C(O)C(O)C1O (stereo not drawn) [Compound 4, apigenin 7-O-glucuronide] ) reads > 200 µM

* * *

Answer each item with its documented IC50.
system: C32 melanoma cells; test: Neutral red uptake (NRU) assay, C32; details: read-out: IC50, cytotoxic activity, NRU assay; C32, 72 h

Molecule: COc1ccc(-c2cc(=O)c3c(O)cc(O)c([C@@H]4OC[C@@H](O)[C@H](O)[C@H]4O[C@@H]4O[C@H](CO)[C@@H](O)[C@H](O)[C@H]4O)c3o2)cc1O
IC50: > 200 µM

Molecule: CC(=O)Oc1ccc(-c2cc(=O)c3c(O)cc(O)c([C@@H]4OC[C@@H](O)[C@H](O)[C@H]4O[C@@H]4O[C@H](CO)[C@@H](O)[C@H](O)[C@H]4O)c3o2)cc1O
IC50: > 200 µM

Now consider a different molecule.
Entry under test: N.N.[Cl][Pt][Cl] [cPt, cisplatin, reference compound] . Its IC50 was 13.8 µM

* * *

Hi there, I'd appreciate the recorded IC50 at 72 h for every entry that follows.
test: MTT cell viability assay, normal cells; details: human, human skin fibroblasts (CCD25Sk);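 further: fibroblasts served as non-cancer comparison line for selectivity versus melanoma cells, MTT reduction read as absorbance at 570 nm after 2 h dye exposure, compounds in ≤0.1% DMSO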

Here's what some known entries look like.
Compound: COc1c(O)cc(O)c2c(=O)c(O)c(-c3ccc(O)cc3)oc12
Property name: IC50 at 72 h
Test result: 100 to 200 µM
--
Compound: O=c1c(O)c(-c2cc(O)c(O)c(O)c2)oc2cc(O)ccc12
Property name: IC50 at 72 h
Test result: > 200 µM
--
Compound: O=c1cc(-c2ccc(O)cc2)oc2c([C@@H]3O[C@H](CO)[C@@H](O)[C@H](O)[C@H]3O)c(O)cc(O)c12 [Compound 2, apigenin 8-C-glucoside]
Property name: IC50 at 72 h
Test result: > 200 µM

Field: IC50 at 72 h. Fill in for each record below.
1. CC1OC(OCC2OC(Oc3c(-c4ccc(O)c(O)c4)oc4cc(OC5OC(CO)C(O)C(O)C5O)cc(O)c4c3=O)C(O)C(O)C2O)C(O)C(O)C1O (centres unmarked) [Compound 29, quercetin 3-O-rutinoside-7-O-glucoside]
2. O=c1c(O[C@@H]2O[C@H](CO)[C@@H](O)[C@H](O)[C@H]2O)c(-c2ccc(O)cc2)oc2cc(O)cc(O)c12 [Compound 20, kaempferol 3-O-glucoside]
3. COc1ccc(C2CC(=O)c3c(O)cc(OC4OC(COC5OC(C)C(O)C(O)C5O)C(O)C(O)C4O)cc3O2)cc1O (centres unmarked) [Compound 34, hesperetin 7-O-rutinoside]
4. COc1cc(O)c2c(=O)c(O)c(-c3ccc(O)c(O)c3)oc2c1
5. C[C@@H]1O[C@@H](OC[C@H]2O[C@@H](Oc3c(-c4ccc(O)c(O)c4)oc4cc(O)cc(O)c4c3=O)[C@H](O)[C@@H](O)[C@@H]2O)[C@H](O)[C@H](O)[C@H]1O [Compound 28, quercetin 3-O-rutinoside]

A:
1: > 200 µM; 2: > 200 µM; 3: > 200 µM; 4: 35.7 µM; 5: > 200 µM
